The origin of these recorded values is patent US4292317A.

test system: Sh. sonnei I.P.S.; assay: M.I.C. in vitro, nutrient agar dilution; assay type: cell-based; conditions: Shigella sonnei, 18 h; Table 2; Sh. sonnei I.P.S. (Gram negative); read-out: M.I.C.
property.label: MIC

>>> df
                                   compound  measured
0  CCn1cc(C(=O)O)c(=O)c2ccc(N3CCN(CCO)CC3)cc21 [Example T4, reference compound]  6.2 mg/L
1  CCn1cc(C(=O)O)c(=O)c2cc(Cl)c(N3CCN(CCO)CC3)cc21  0.8 mg/L
2  CCn1cc(C(=O)O)c(=O)c2cc(Cl)c(N3CCNCC3)cc21  0.2 mg/L
3  CCn1cc(C(=O)O)c(=O)c2cc(Cl)c(N3CCN(Cc4ccccc4)CC3)cc21  1.6 mg/L
4  CCn1cc(C(=O)O)c(=O)c2cc(Cl)c(N3CCOCC3)cc21  0.8 mg/L
5  CCn1cc(C(=O)O)c(=O)c2ccc(N3CCN(C)CC3)cc21 [Example T1, reference compound]  1.6 mg/L

====

Catalogue of MIC readings, one per entry.
tested on: Esch. coli 95 I.S.M.; assay: M.I.C. in vitro, nutrient agar dilution; format: cell-based; details: Escherichia coli, 18 h; Table 2; Esch. coli 95 I.S.M. (Gram negative); read-out: M.I.C.
property.label: MIC

>>> df
                                   compound     system_under_test          measured
0  CCn1cc(C(=O)O)c(=O)c2cc(Cl)c(N3CCN(C)CC3)cc21  Esch. coli 95 I.S.M.  0.4 to 0.8 µg/mL
1  CCn1cc(C(=O)O)c(=O)c2cc(Cl)c(N3CCN(CCO)CC3)cc21  Esch. coli 95 I.S.M.         1.6 µg/mL
2  CCn1cc(C(=O)O)c(=O)c2cc(Cl)c(N3CCNCC3)cc21  Esch. coli 95 I.S.M.         0.2 µg/mL
3  CCn1cc(C(=O)O)c(=O)c2cc(Cl)c(N3CCN(Cc4ccccc4)CC3)cc21  Esch. coli 95 I.S.M.         3.1 µg/mL
4  CCn1cc(C(=O)O)c(=O)c2cc(Cl)c(N3CCOCC3)cc21  Esch. coli 95 I.S.M.         1.6 µg/mL
5  CCn1cc(C(=O)O)c(=O)c2ccc(N3CCN(C)CC3)cc21 [Example T1, reference compound]  Esch. coli 95 I.S.M.         0.8 µg/mL
6  CCn1cc(C(=O)O)c(=O)c2ccc(N3CCN(CCO)CC3)cc21 [Example T4, reference compound]  Esch. coli 95 I.S.M.         6.2 µg/mL

====

assay: in vivo; conditions: mouse, iv, mice
Catalogue of LD50 readings, one per entry.
property.label: LD50 (mg/kg)

>>> df
                                   compound  property_label  measured
0  C=CCN1CCN(c2cc3c(cc2F)c(=O)c(C(=O)O)cn3CC)CC1            LD50       177
1  CCn1cc(C(=O)O)c(=O)c2cc3c(cc21)OCO3 [Oxolinic acid, oxolinic acid, reference compound]            LD50       177

====

Tested on: Pr. vulgaris 12-53
Assay: M.I.C. in vitro, nutrient agar dilution
Format: cell-based
Settings: Proteus vulgaris, 1253, 18 h; Table III; Pr. vulgaris 12-53; read-out: M.I.C.
Description: After sterilisation at 120° C., the pH was 6.8. The minimum inhibitory concentrations (M.I.C.) were determined by dilution of the test compounds in this mixture, the concentration ranging from 0.05 to 100 μg/cm^3 in a geometric progression with a factor of 2. The inoculation of the dishes was carried out by means of a multiple inoculator with 10^-3 dilutions of 18 hour old broth cultures. The dishes were placed in an oven at 37° C. and the readings were taken afer an incubation time of 18 hours. […]
property.label: MIC (µg/mL)

>>> df
                                   molecule  property_label  measured
0  C=CCn1cc(C(=O)O)c(=O)c2cc(F)c(N3CCN(C)CC3)cc21 [Example 34]             MIC       0.2
1  Cn1cc(C(=O)O)c(=O)c2cc(F)c(N3CCNCC3)cc21 [Example 32]             MIC       0.2
2  CN1CCN(c2cc3c(cc2F)c(=O)c(C(=O)O)cn3C)CC1 [Example 31]             MIC       0.2
3  C=Cn1cc(C(=O)O)c(=O)c2cc(F)c(N3CCOCC3)cc21 [Example 42]             MIC       0.8
4  C=Cn1cc(C(=O)O)c(=O)c2cc(F)c(N3CCN(C)CC3)cc21 [Example 41]             MIC      0.05
5  CCn1cc(C(=O)O)c(=O)c2cc(F)c(N3CCNCC3)cc21 [Example 22]             MIC      0.05
